EXPERIMENTAL_SYSTEM: T1, human IL-36α(R12), truncated (human, UniProt Q9UHA7 6-158)
T1 chain: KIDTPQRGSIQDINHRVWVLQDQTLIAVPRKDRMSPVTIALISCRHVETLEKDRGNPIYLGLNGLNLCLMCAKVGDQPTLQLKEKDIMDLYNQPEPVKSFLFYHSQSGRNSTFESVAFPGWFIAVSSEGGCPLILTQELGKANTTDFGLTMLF
PROTOCOL_DESCRIPTION: cell-based or functional assay
# reported IC50 of IL-8 secretion, primary human monocytes, 20 nM human IL-36α, FIG. 5A; entries follow
OBSERVED_PROPERTY: IC50 of IL-8 secretion, primary human monocytes, 20 nM human IL-36α, FIG. 5A

>>> experimental_value("144L124B (antibody, V domains shown, Mouse monoclonal from hybridoma; mouse IgG heavy and lambda light chain; Same VH and VL as 144L180A) VH: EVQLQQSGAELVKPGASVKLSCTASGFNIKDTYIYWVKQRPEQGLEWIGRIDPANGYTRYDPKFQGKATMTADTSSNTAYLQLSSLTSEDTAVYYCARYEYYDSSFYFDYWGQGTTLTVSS VL: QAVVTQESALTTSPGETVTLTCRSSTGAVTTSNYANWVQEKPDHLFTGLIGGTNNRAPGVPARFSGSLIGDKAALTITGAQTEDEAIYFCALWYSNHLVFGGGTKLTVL")
"44.2 nM"
>>> experimental_value("144L180A (antibody, V domains shown) VH: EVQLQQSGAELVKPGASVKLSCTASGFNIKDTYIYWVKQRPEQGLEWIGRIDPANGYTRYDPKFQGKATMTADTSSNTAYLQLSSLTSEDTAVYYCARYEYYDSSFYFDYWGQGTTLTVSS VL: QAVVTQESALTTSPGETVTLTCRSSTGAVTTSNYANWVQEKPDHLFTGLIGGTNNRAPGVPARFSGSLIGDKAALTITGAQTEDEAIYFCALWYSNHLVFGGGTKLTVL")
"96.9 nM"
